src = patent US20250250357A1

- targetOrSystem: T1, human MSLN-FL-his protein (human, UniProt Q13421 296-580)
- T1 construct: made in HEK293E cells, purified on nickel column; also called hMSLN-FL-his; human MSLN full-length protein; not shown: His tag
- T1 sequence (Q13421 other isoform, or with tags, fused parts or gaps): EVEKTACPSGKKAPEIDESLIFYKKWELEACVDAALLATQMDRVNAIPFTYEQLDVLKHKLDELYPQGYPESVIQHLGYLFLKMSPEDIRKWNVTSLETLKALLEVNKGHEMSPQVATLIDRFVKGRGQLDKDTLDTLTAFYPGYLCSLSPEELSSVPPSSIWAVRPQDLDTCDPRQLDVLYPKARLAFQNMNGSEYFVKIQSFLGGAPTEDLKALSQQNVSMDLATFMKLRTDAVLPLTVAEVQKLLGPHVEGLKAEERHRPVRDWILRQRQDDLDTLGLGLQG
- testMethodNotes: competitive ELISA; row F8-5.15; also: test concentration or dose not given here
measure: competition rate (%)
Respond with the bare value in %.

Incoming: Respond only with competition rate recorded for S009-F8-27.1 (antibody, human IgG1, kappa, V domains shown, human-murine chimeric antibody, human IgG1/kappa constant regions) VH: EVQLVESGGGLVKPGGSLKLSCAASGFTFSSYAMSWVRQTPEKRLEWVATISDGGNYTYYPDNVKGRFTISRDNAKNNLYLQMSHLKSEDTAMYYCAGDRGYPYAMDSWGQGTSVTVSS VL: NIMMTQSPSSLAVSAGEKVTMSCKSSQSVLYSSNQKNYLAWYQQKPGQSPKLLIYWASTRESGVPDRFTGSGSGTDFTLTISNVHAEDLAVYYCHQYLSSLTFGAGTKLELKR
Outgoing: 99.8
